I'd appreciate it if you could supply tumor growth inhibition rate, MTT Assay values for the items below.
tested on: Melanoma; assay: MTT assay, tumor cells; format: cell-based, human; set-up: concentration or dose not given beside the values; details: 48 hours, mean ± SD
Numbers only, in %.

Known results for substances:
Substance: Arg-Gly-Asp-Gly-Gly-Gly-Gly-Ile-Val-Arg-Arg-Ala-Asp-Arg-Ala-Ala-Val-Pro-Gly-Gly-Gly-Gly-Pro-(D-Pyr)-(D-Cys)-Bip-Arg-Gly-Glu [Polypeptide IV]
Units text: %
Measured result: 57.25
--
Substance: Arg-Gly-Asp-Gly-Gly-Gly-Gly-Pro-(D-Pyr)-(D-Cys)-Bip-Arg-Gly-Glu-Gly-Gly-Gly-Gly-Ile-Val-Arg-Arg-Ala-Asp-Arg-Ala-Ala-Val-Pro [Polypeptide III]
Units text: %
Measured result: 64.46
--
Substance: Ile-Val-Arg-Arg-Ala-Asp-Arg-Ala-Ala-Val-Pro-Gly-Gly-Gly-Gly-Arg-Gly-Asp-Gly-Gly-Gly-Gly-Pro-(D-Pyr)-(D-Cys)-Bip-Arg-Gly-Glu [Polypeptide V]
Units text: %
Measured result: 48.77

Please give tumor growth inhibition rate, MTT Assay, item by item, for the list that follows.
1. Pro-(D-Pyr)-(D-Cys)-Bip-Arg-Gly-Glu-Gly-Gly-Gly-Gly-Ile-Val-Arg-Arg-Ala-Asp-Arg-Ala-Ala-Val-Pro-Gly-Gly-Gly-Gly-Arg-Gly-Asp [Polypeptide I]
2. Pro-(D-Pyr)-(D-Cys)-Bip-Arg-Gly-Glu-Gly-Gly-Gly-Gly-Arg-Gly-Asp-Gly-Gly-Gly-Gly-Ile-Val-Arg-Arg-Ala-Asp-Arg-Ala-Ala-Val-Pro [Polypeptide VI]
3. Ile-Val-Arg-Arg-Ala-Asp-Arg-Ala-Ala-Val-Pro-Gly-Gly-Gly-Gly-Pro-(D-Pyr)-(D-Cys)-Bip-Arg-Gly-Glu-Gly-Gly-Gly-Gly-Arg-Gly-Asp [Polypeptide II]

1. 42.41
2. 50.89
3. 55.55

###

tested on: Non-small cell lung cancer; assay: MTT assay, lung cancer tumor cells; type: cell-based, human; set-up: concentration or dose not given beside the values; conditions: 48 h, mean ± SD
Metric name: tumor growth inhibition rate, MTT Assay (%)
Answers are plain numbers, in %.

Substance: Ile-Val-Arg-Arg-Ala-Asp-Arg-Ala-Ala-Val-Pro-Gly-Gly-Gly-Gly-Arg-Gly-Asp-Gly-Gly-Gly-Gly-Pro-(D-Pyr)-(D-Cys)-Bip-Arg-Gly-Glu [Polypeptide V]
Experimental target: Non-small cell lung cancer
tumor growth inhibition rate, MTT Assay [%]: 79.78
//
Substance: Ile-Val-Arg-Arg-Ala-Asp-Arg-Ala-Ala-Val-Pro-Gly-Gly-Gly-Gly-Pro-(D-Pyr)-(D-Cys)-Bip-Arg-Gly-Glu-Gly-Gly-Gly-Gly-Arg-Gly-Asp [Polypeptide II]
Experimental target: Non-small cell lung cancer
tumor growth inhibition rate, MTT Assay [%]: 90.88

Fill in: tumor growth inhibition rate, MTT Assay of Pro-(D-Pyr)-(D-Cys)-Bip-Arg-Gly-Glu-Gly-Gly-Gly-Gly-Arg-Gly-Asp-Gly-Gly-Gly-Gly-Ile-Val-Arg-Arg-Ala-Asp-Arg-Ala-Ala-Val-Pro [Polypeptide VI] is ___ 83.25

###

tested on: Kidney cancer; experiment: MTT assay, tumor cells; assay type: cell-based, human; design: concentration or dose not given beside the values; settings: 48 hours, mean ± SD
Metric name: tumor growth inhibition rate, MTT Assay (%)
Give bare numbers, in %.

Known results for substances:
Substance: Arg-Gly-Asp-Gly-Gly-Gly-Gly-Ile-Val-Arg-Arg-Ala-Asp-Arg-Ala-Ala-Val-Pro-Gly-Gly-Gly-Gly-Pro-(D-Pyr)-(D-Cys)-Bip-Arg-Gly-Glu [Polypeptide IV]
Measured result: 60.35
//
Substance: Arg-Gly-Asp-Gly-Gly-Gly-Gly-Pro-(D-Pyr)-(D-Cys)-Bip-Arg-Gly-Glu-Gly-Gly-Gly-Gly-Ile-Val-Arg-Arg-Ala-Asp-Arg-Ala-Ala-Val-Pro [Polypeptide III]
Measured result: 67.94
//
Substance: Pro-(D-Pyr)-(D-Cys)-Bip-Arg-Gly-Glu-Gly-Gly-Gly-Gly-Ile-Val-Arg-Arg-Ala-Asp-Arg-Ala-Ala-Val-Pro-Gly-Gly-Gly-Gly-Arg-Gly-Asp [Polypeptide I]
Measured result: 44.70
//
Substance: Ile-Val-Arg-Arg-Ala-Asp-Arg-Ala-Ala-Val-Pro-Gly-Gly-Gly-Gly-Pro-(D-Pyr)-(D-Cys)-Bip-Arg-Gly-Glu-Gly-Gly-Gly-Gly-Arg-Gly-Asp [Polypeptide II]
Measured result: 58.56
//
Substance: Ile-Val-Arg-Arg-Ala-Asp-Arg-Ala-Ala-Val-Pro-Gly-Gly-Gly-Gly-Arg-Gly-Asp-Gly-Gly-Gly-Gly-Pro-(D-Pyr)-(D-Cys)-Bip-Arg-Gly-Glu [Polypeptide V]
Measured result: 51.41

Fill in: tumor growth inhibition rate, MTT Assay of Pro-(D-Pyr)-(D-Cys)-Bip-Arg-Gly-Glu-Gly-Gly-Gly-Gly-Arg-Gly-Asp-Gly-Gly-Gly-Gly-Ile-Val-Arg-Arg-Ala-Asp-Arg-Ala-Ala-Val-Pro [Polypeptide VI] is ___ 53.64

###

I'd appreciate it if you could supply tumor growth inhibition rate, MTT Assay values for the items below.
system: Gastric cancer; test: MTT assay, tumor cells; format: cell-based, human; design: concentration or dose not given beside the values; conditions: 48 hours, mean ± SD
Numbers only, in %.

Known results for substances:
Substance: Pro-(D-Pyr)-(D-Cys)-Bip-Arg-Gly-Glu-Gly-Gly-Gly-Gly-Arg-Gly-Asp-Gly-Gly-Gly-Gly-Ile-Val-Arg-Arg-Ala-Asp-Arg-Ala-Ala-Val-Pro [Polypeptide VI]
Experimental target: Gastric cancer
tumor growth inhibition rate, MTT Assay (%): 58.09
//
Substance: Ile-Val-Arg-Arg-Ala-Asp-Arg-Ala-Ala-Val-Pro-Gly-Gly-Gly-Gly-Pro-(D-Pyr)-(D-Cys)-Bip-Arg-Gly-Glu-Gly-Gly-Gly-Gly-Arg-Gly-Asp [Polypeptide II]
Experimental target: Gastric cancer
tumor growth inhibition rate, MTT Assay (%): 63.41
//
Substance: Ile-Val-Arg-Arg-Ala-Asp-Arg-Ala-Ala-Val-Pro-Gly-Gly-Gly-Gly-Arg-Gly-Asp-Gly-Gly-Gly-Gly-Pro-(D-Pyr)-(D-Cys)-Bip-Arg-Gly-Glu [Polypeptide V]
Experimental target: Gastric cancer
tumor growth inhibition rate, MTT Assay (%): 55.67
//
Substance: Arg-Gly-Asp-Gly-Gly-Gly-Gly-Ile-Val-Arg-Arg-Ala-Asp-Arg-Ala-Ala-Val-Pro-Gly-Gly-Gly-Gly-Pro-(D-Pyr)-(D-Cys)-Bip-Arg-Gly-Glu [Polypeptide IV]
Experimental target: Gastric cancer
tumor growth inhibition rate, MTT Assay (%): 65.35
//
Substance: Pro-(D-Pyr)-(D-Cys)-Bip-Arg-Gly-Glu-Gly-Gly-Gly-Gly-Ile-Val-Arg-Arg-Ala-Asp-Arg-Ala-Ala-Val-Pro-Gly-Gly-Gly-Gly-Arg-Gly-Asp [Polypeptide I]
Experimental target: Gastric cancer
tumor growth inhibition rate, MTT Assay (%): 48.41

Next substance, tumor growth inhibition rate, MTT Assay to be filled in.
Fill in: tumor growth inhibition rate, MTT Assay of Arg-Gly-Asp-Gly-Gly-Gly-Gly-Pro-(D-Pyr)-(D-Cys)-Bip-Arg-Gly-Glu-Gly-Gly-Gly-Gly-Ile-Val-Arg-Arg-Ala-Asp-Arg-Ala-Ala-Val-Pro [Polypeptide III] is ___ 73.58

###

system: Mycoplasma pneumoniae; test: Mouse pneumonia model, mycoplasma; type: in vivo, BALB/C mice; design: concentration or dose not given beside the values; conditions: mean ± SD
Metric name: Inhibitory Effects on Various Pulmonary Infections (%)
One number for each entry, in %.

Please give Inhibitory Effects on Various Pulmonary Infections, item by item, for the list that follows.
1. Ile-Val-Arg-Arg-Ala-Asp-Arg-Ala-Ala-Val-Pro-Gly-Gly-Gly-Gly-Arg-Gly-Asp-Gly-Gly-Gly-Gly-Pro-(D-Pyr)-(D-Cys)-Bip-Arg-Gly-Glu [Polypeptide V]
2. Pro-(D-Pyr)-(D-Cys)-Bip-Arg-Gly-Glu-Gly-Gly-Gly-Gly-Ile-Val-Arg-Arg-Ala-Asp-Arg-Ala-Ala-Val-Pro-Gly-Gly-Gly-Gly-Arg-Gly-Asp [Polypeptide I]
3. Pro-(D-Pyr)-(D-Cys)-Bip-Arg-Gly-Glu-Gly-Gly-Gly-Gly-Arg-Gly-Asp-Gly-Gly-Gly-Gly-Ile-Val-Arg-Arg-Ala-Asp-Arg-Ala-Ala-Val-Pro [Polypeptide VI]

[34.37, 29.89, 35.87]

These data points were gathered from patent US20190031717A1.
